Catalogue of Ki readings, one per entry.
# TARGET_DESC: T1, Human EphA2 (Ecto) (Human, UniProt P29317 24-537)
# T1 construct: extracellular domain
# PROTOCOL_NOTES: FP competition; competitor Compound 18
Numbered stars: 1 amine (or outer) side, 2 acyl side, 3 side chain; on linkers, the order of the positions; unused ones are H or OH. Bridge positions count the residues as written; N and C are the ends. Square brackets hold non-standard residues; d marks the D form. Ends that are not written are not given here. TBMB = c1c(C[*:1])cc(C[*:3])cc1C[*:2]; hArg = N=C(N)NCCCC[C@H](N)C(=O)O; Aib = CC(C)(N)C(=O)O; Sar = CNCC(=O)O
The reply should be a number in nM, with the unit left off.

>>> df
                                     binder  recorded_metric  unit_text  observed_result
0  ADVHCPWGPFWCPVNRPGCA (linker 5-12-19 via TBMB) [Compound 57]               Ki         nM             0.48

Query string: # lookup: Ki of [Sar][Sar]AH[dD]VPCPWGPFWCPVNRPGC (linker 8-15-22 via TBMB) [Compound 209]
Result string: 1.25

Query string: Subsequent entry: Ac-[Sar][Sar]A[dD]VTCPWGPFWCPVN[hArg]P[dD]C (linker 7-14-21 via TBMB) [Compound 176]
Result string: 4.89

Query string: Subsequent entry: [Sar][Sar]AHD[Aib]PCPWGPFWCPVNRPGC (linker 8-15-22 via TBMB) [Compound 216]
Result string: 2.77

Query string: Subsequent entry: Ac-[Sar][Sar]A[dD][dD]TCPWGPFWCPVNRPGC (linker 7-14-21 via TBMB) [Compound 159]
Result string: 2.85
